Assay: Plasma pharmacokinetics of Posiphen and its N1 and N8 metabolites (LC-MS, non-compartmental)
Assay type: in vivo, human
Details: human, plasma, oral, 60 mg, plasma; 60 mg daily (n = 4); geometric mean (% geometric CV); read-out: AUC0 − 24
Procedure: For the confinement visit, subjects arrived in the early morning after an overnight fast. Physical and neurological examination, vital signs, and assessment of compliance were completed and blood was drawn for safety laboratory tests. An intravenous line and a second line for repeated blood draw were placed. […] After 36 h, intravenous lines and the CSF catheter were removed, vital signs were measured, physical exam performed, and blood and CSF were sent for routine laboratory studies. […]
RESULT TYPE: AUC(0-t) (ng·h/mL)
Your answer is read as ng·h/mL, so omit the unit and give the number.

get_value(item= CN1CC[C@]2(C)c3cc(OC(=O)Nc4ccccc4)ccc3N(C)[C@H]12 [Posiphen] , readout=AUC(0-t)) returns 212

---

Assay: CSF pharmacokinetics of Posiphen and its N1 and N8 metabolites (lumbar catheter sampling, LC-MS)
Type: in vivo, human
Conditions: human, oral, 60 mg, 60 mg TID (n = 1), read-out: Cmax
RESULT TYPE: Cmax (ng/mL)
Your answer is read as ng/mL, so omit the unit and give the number.

get_value(item= CN1CC[C@]2(C)c3cc(OC(=O)Nc4ccccc4)ccc3N(C)[C@H]12 , readout=Cmax) returns 2.44

---

Assay: CSF pharmacokinetics of Posiphen and its N1 and N8 metabolites (lumbar catheter sampling, LC-MS)
Type: in vivo, human
Details: human, oral, 60 mg, 60 mg BID (n = 5), geometric mean (% geometric CV), read-out: Cmax
RESULT TYPE: Cmax (ng/mL)
Your answer is read as ng/mL, so omit the unit and give the number.

get_value(item= CN1CC[C@]2(C)c3cc(OC(=O)Nc4ccccc4)ccc3N(C)[C@H]12 , readout=Cmax) returns 2.21

---

Assay: Plasma pharmacokinetics of Posiphen and its N1 and N8 metabolites (LC-MS, non-compartmental)
Format: in vivo, human
Conditions: human, plasma, oral, 60 mg, plasma; 60 mg TID (n = 1); read-out: Cmax
RESULT TYPE: Cmax (ng/mL)
Your answer is read as ng/mL, so omit the unit and give the number.

get_value(item= CN1CC[C@]2(C)c3cc(OC(=O)Nc4ccccc4)ccc3N(C)[C@H]12 [Posiphen] , readout=Cmax) returns 51.8

---

Test: CSF pharmacokinetics of Posiphen and its N1 and N8 metabolites (lumbar catheter sampling, LC-MS)
Type: in vivo, human
Settings: human, oral, 60 mg daily (n = 4; N1: only one participant measurable), median (min-max), read-out: Tmax
RESULT TYPE: Tmax (h)
Your answer is read as h, so omit the unit and give the number.

get_value(item= CN1CC[C@]2(C)c3cc(OC(=O)Nc4ccccc4)ccc3N(C)[C@H]12 , readout=Tmax) returns 2

---

Experiment: Plasma pharmacokinetics of Posiphen and its N1 and N8 metabolites (LC-MS, non-compartmental)
Assay type: in vivo, human
Details: human, plasma, oral, 60 mg, plasma; 60 mg TID (n = 1); read-out: AUC0 − 24
RESULT TYPE: AUC(0-t)
Number plus unit, in that order.

get_value(item= CN1CC[C@]2(C)c3cc(OC(=O)Nc4ccccc4)ccc3N(C)[C@H]12 [Posiphen] , readout=AUC(0-t)) returns 288 ng·h/mL

---

Experiment: Plasma pharmacokinetics of Posiphen and its N1 and N8 metabolites (LC-MS, non-compartmental)
Format: in vivo, human
Conditions: human, plasma, oral, 60 mg, plasma; 60 mg daily (n = 4); geometric mean (% geometric CV); read-out: Cmax
RESULT TYPE: Cmax (ng/mL)
Your answer is read as ng/mL, so omit the unit and give the number.

get_value(item= CN1CC[C@]2(C)c3cc(OC(=O)Nc4ccccc4)ccc3N(C)[C@H]12 , readout=Cmax) returns 52.7

---

Assay: Plasma pharmacokinetics of Posiphen and its N1 and N8 metabolites (LC-MS, non-compartmental)
Type: in vivo, human
Conditions: human, plasma, oral, 60 mg, plasma; 60 mg BID (n = 5); geometric mean (% geometric CV); read-out: Cmax
RESULT TYPE: Cmax (ng/mL)
Your answer is read as ng/mL, so omit the unit and give the number.

get_value(item= CN1CC[C@]2(C)c3cc(OC(=O)Nc4ccccc4)ccc3N(C)[C@H]12 [Posiphen] , readout=Cmax) returns 30.4

---

Assay: CSF pharmacokinetics of Posiphen and its N1 and N8 metabolites (lumbar catheter sampling, LC-MS)
Format: in vivo, human
Conditions: human, oral, 60 mg, 60 mg daily (n = 4; N1: only one participant measurable), geometric mean (% geometric CV), read-out: AUC0 − 24
RESULT TYPE: AUC(0-t) (ng·h/mL)
Your answer is read as ng·h/mL, so omit the unit and give the number.

get_value(item= CN1CC[C@]2(C)c3cc(OC(=O)Nc4ccccc4)ccc3N(C)[C@H]12 , readout=AUC(0-t)) returns 12.3

---

Experiment: Plasma pharmacokinetics of Posiphen and its N1 and N8 metabolites (LC-MS, non-compartmental)
Format: in vivo, human
Conditions: human, plasma, oral, 60 mg, plasma; 60 mg BID (n = 5); geometric mean (% geometric CV); read-out: AUC0 − 24
RESULT TYPE: AUC(0-t) (ng·h/mL)
Your answer is read as ng·h/mL, so omit the unit and give the number.

get_value(item= CN1CC[C@]2(C)c3cc(OC(=O)Nc4ccccc4)ccc3N(C)[C@H]12 , readout=AUC(0-t)) returns 196
